tested on: C. parapsilosis; test: Minimum inhibitory concentration, RPMI medium; format: cell-based; conditions: banded MIC grade
For each entry below, report its MIC grade, C. PARAPSILOSIS, RPMI media value.

Task: Look at this molecule and give its reported MIC grade, C. PARAPSILOSIS, RPMI media. COCCCCCC1=CSC(=N)NN1C
Output: 4 (4: <1 mg/L)

Task: What value of MIC grade, C. PARAPSILOSIS, RPMI media has been reported for the following molecule? CC(=O)OCCCCC1=NN=C(N)SC1
Output: 4 (4: <1 mg/L)

Task: Which MIC grade, C. PARAPSILOSIS, RPMI media value belongs to COCCOCCC1=NN=C(N)SC1 ?
Output: 2 (2: 5-20 mg/L)

Task: MIC grade, C. PARAPSILOSIS, RPMI media lookup needed for COc1ccc(CCCOCCC2=NN=C(N)SC2)cc1 , thanks.
Output: 3 (3: 1-5 mg/L)

Task: # MIC grade, C. PARAPSILOSIS, RPMI media lookup, item CCCCOc1ccc(C2=NN=C(N)SC2)cc1
Output: 1 (1: ≥20 mg/L)

Task: Query: MIC grade, C. PARAPSILOSIS, RPMI media; subject: CCc1cccc(OCCCCCC2=NN=C(N)SC2)c1
Output: 4 (4: <1 mg/L)

Task: Name the recorded MIC grade, C. PARAPSILOSIS, RPMI media for NC1=NN=C(CCCCCc2ccccn2)CS1 .
Output: 3 (3: 1-5 mg/L)

Task: Param item = NC1=NN=C(CCCCOCc2c(F)cccc2Cl)CS1 ; retrieve measured MIC grade, C. PARAPSILOSIS, RPMI media.
Output: 2 (2: 5-20 mg/L)

Task: Endpoint output: MIC grade, C. PARAPSILOSIS, RPMI media of NC1=NN=C(CCCCOCc2cccc(Cl)c2)CS1 . Value?
Output: 4 (4: <1 mg/L)

Task: So what does the record say about MIC grade, C. PARAPSILOSIS, RPMI media for NC1=NN=C(CCCCOCc2ccc(C(F)(F)F)cc2)CS1 ?
Output: 4 (4: <1 mg/L)

Task: Suppose we examine the molecule NC1=NN=C(CCCCOCc2ccccc2)CS1 ; what MIC grade, C. PARAPSILOSIS, RPMI media value has been reported?
Output: 4 (4: <1 mg/L)

Task: MIC grade, C. PARAPSILOSIS, RPMI media lookup needed for NC1=NN=C(CCCCOCc2cccc(Br)c2)CS1 , thanks.
Output: 4 (4: <1 mg/L)

Task: Find the recorded MIC grade, C. PARAPSILOSIS, RPMI media belonging to COCCCCC1=NN=C(N)SC1 and report it.
Output: 4 (4: <1 mg/L)

Task: Entry under review: CCOC(=O)CCCCCC1=NN=C(N)SC1 . Reported MIC grade, C. PARAPSILOSIS, RPMI media?
Output: 4 (4: <1 mg/L)

Data provenance is patent US20180201592A1.
